system: TYKNU; experiment: fractional viability relative to vehicle; TYKNU is a high-grade serous ovarian cancer line; higher = less growth inhibition; conditions: 2uM; 72 h; genotype: DNM1L knockout (sgDNM1L #1)
Over roughly 2,000 compounds, “fractional viability relative to vehicle” has its median near 0.91; the lowest 2% begin near 0.045. Many of the other results were omitted from the sample, so the lowest values are more common in it than they were.
Quick reference for fractional viability among some compounds
Give your answer as a number; write no unit.

compound	fractional viability
CC#CCn1c(N2CCC[C@@H](N)C2)nc2c1c(=O)n(Cc1nc(C)c3ccccc3n1)c(=O)n2C	1.22
O=[N+]([O-])c1ccc2c(c1)S(=O)(=O)C=C2	0.0799
CS(=O)(=O)Nc1ccc([N+](=O)[O-])cc1Oc1ccccc1 [Nimesulide]	0.973
CN1CCN(C(=O)c2cc3cc(Cl)ccc3[nH]2)CC1	1.13
O=C(NS(=O)(=O)c1ccc(Br)s1)c1ccc(Cl)cc1Cl	0.84
CC(=O)N1c2ccc(-c3ccc(C(=O)O)cc3)cc2[C@H](Nc2ccc(Cl)cc2)C[C@@H]1C	0.281
CN1CCCN(C(=O)c2cccc(-c3ccc(/C=C4/C(=O)Nc5ccc(Cl)cc54)o3)c2)CC1	0.0585
Cc1[nH]nc2ccc(-c3cncc(OC[C@@H](N)Cc4ccccc4)c3)cc12	0.23
CCOC(=O)[C@@H](N)Cc1ccc(-c2cc(O[C@H](c3ccc(Cl)cc3-n3ccc(C)n3)C(F)(F)F)nc(N)n2)cc1 [Telotristat Etiprate (LX 1606 Hippurate)]	0.777
O=C(NC1CC1)c1cc(-c2cccs2)on1	0.927

Entry CCCc1nc(C(C)(C)O)c(C(=O)OCc2oc(=O)oc2C)n1Cc1ccc(-c2ccccc2-c2nnn[nH]2)cc1 , fractional viability reported as 0.907

Entry CCCCCCCCCCCCCCCC[N+](C)(C)C [Cetrimonium Bromide (CTAB)] , fractional viability reported as 0.311

Entry COc1ccc2[nH]cc(/C=C3\C(=O)Nc4ccc(NC(=O)CCN5CCCCC5)cc43)c2c1 , fractional viability reported as 0.761

Entry CCS(=O)(=O)N1CCC([C@@H](C)n2c(C)c(C(=O)NCc3c(OC)cc(C)[nH]c3=O)c3ccccc32)CC1 , fractional viability reported as 0.746

Entry Cn1c(=O)cc(N2CCC[C@@H](N)C2)n(Cc2ccccc2C#N)c1=O , fractional viability reported as 0.928

Entry O=C([O-])c1ccccc1O.[Na+] [Sodium salicylate] , fractional viability reported as 1.08

Entry CCCCCCCCCCCC[N+](C)(C)CCOc1ccccc1 [Domiphen Bromide] , fractional viability reported as 0.558

Entry COc1ccc(-n2c(SCCCN3C(=O)c4cccc5cccc(c45)C3=O)nnc2-c2ccncc2)cc1 , fractional viability reported as 0.722
